Assay: Inhibition of full length HCV NS3/4A protease
Parameters: species or system Hepacivirus hominis
Conditions: read-out: Ki
MEASURE_NAME: Ki (nM)

In the examples that follow, each entry is paired with its recorded Ki.
>>> result("COc1ccc2c(O[C@@H]3C[C@H]4C(=O)N[C@]5(C(=O)NS(=O)(=O)C6CC6)C[C@H]5/C=C\\CCCCCN(C)C(=O)N4C3)cc(-c3ccccc3)nc2c1")
10
>>> result("COc1ccc2c(O[C@@H]3C[C@H]4C(=O)N[C@]5(C(=O)NS(=O)(=O)C6CC6)C[C@H]5/C=C\\CCCCNC(=O)N4C3)cc(-c3nc(C(C)C)cs3)nc2c1")
0.5
>>> result("COc1ccc2c(O[C@@H]3C[C@H]4C(=O)N[C@]5(C(=O)NS(=O)(=O)C6CC6)C[C@H]5/C=C\\CCCCCNC(=O)N4C3)cc(-c3nc(C(C)C)cs3)nc2c1")
0.2
>>> result("COc1ccc2c(O[C@@H]3C[C@H]4C(=O)N[C@]5(C(=O)NS(=O)(=O)C6CC6)C[C@H]5/C=C\\CCCCCNC(=O)N4C3)cc(-c3nc(C(C)C)cs3)nc2c1C")
0.05
>>> result("COc1ccc2c(O[C@@H]3C[C@H]4C(=O)N[C@]5(C(=O)NS(=O)(=O)C6CC6)C[C@H]5/C=C\\CCCCOC(=O)N4C3)cc(-c3ccccc3)nc2c1")
0.35
>>> result("COc1ccc2c(O[C@@H]3C[C@H]4C(=O)N[C@]5(C(=O)NS(=O)(=O)C6CC6)C[C@H]5/C=C\\CCCCN(C)C(=O)N4C3)cc(-c3ccccc3)nc2c1")
0.4
>>> result("COc1ccc2c(O[C@@H]3C[C@H]4C(=O)N[C@]5(C(=O)NS(=O)(=O)C6CC6)C[C@H]5/C=C\\CCCCCNC(=O)N4C3)cc(-c3nccs3)nc2c1")
0.3
>>> result("COc1ccc2c(O[C@@H]3C[C@H]4C(=O)N[C@]5(C(=O)NS(=O)(=O)C6CC6)C[C@H]5/C=C\\CCCCCNC(=O)N4C3)cc(-c3ccccc3)nc2c1")
0.24

a = COc1ccc2c(O[C@@H]3C[C@H]4C(=O)N[C@]5(C(=O)NS(=O)(=O)C6(C)CC6)C[C@H]5/C=C\CCCCCNC(=O)N4C3)cc(-c3nc(C(C)C)cs3)nc2c1Cl
b = COc1ccc2c(O[C@@H]3C[C@H]4C(=O)N[C@]5(C(=O)NS(=O)(=O)C6CC6)C[C@H]5/C=C\CCCCNC(=O)N4C3)cc(-c3ccccc3)nc2c1
c = COc1ccc2c(O[C@@H]3C[C@H]4C(=O)N[C@]5(C(=O)NS(=O)(=O)C6(C)CC6)C[C@H]5/C=C\CCCCCNC(=O)N4C3)cc(-c3nc(C(C)C)cs3)nc2c1C
Returns the items ordered by Ki, from maximum to minimum. Give the labels in the order specified.
b, c, a
(b: 1.5 nM, c: 0.2 nM, a: 0.1 nM)

Every entry's value here was drawn from ChEMBL document CHEMBL1152293.
